All figures here come from patent US6509361B1.

Endpoint Label: melting point

Entry Smiles: Cc1cccc(-n2nc(C)cc2-c2ccnc(C(N)=O)c2)c1
Reading: 193 to 195 °C

Entry Smiles: Cc1cccc(-n2nc(C)cc2-c2ccnc(N)c2)c1
Reading: 124 to 125 °C

Entry Smiles: CCc1c[nH][n+](-c2cccc(F)c2)c1-c1ccncc1
Reading: 109 to 110 °C

Entry Smiles: Cc1cc(-c2ccnc(C#N)c2)n(-c2ccc(F)cc2)n1
Reading: 94 to 95 °C

----------
Subject Of Test: human p38 kinase alpha (Homo sapiens, UniProt Q16539)
Construct: The coding region of the human p38a cDNA was obtained by PCR-amplification from RNA isolated from the human monocyte cell line THP.1; GST (N); made in house; host or cells: E. coli DH10B
Sequence (Q16539 whole entry): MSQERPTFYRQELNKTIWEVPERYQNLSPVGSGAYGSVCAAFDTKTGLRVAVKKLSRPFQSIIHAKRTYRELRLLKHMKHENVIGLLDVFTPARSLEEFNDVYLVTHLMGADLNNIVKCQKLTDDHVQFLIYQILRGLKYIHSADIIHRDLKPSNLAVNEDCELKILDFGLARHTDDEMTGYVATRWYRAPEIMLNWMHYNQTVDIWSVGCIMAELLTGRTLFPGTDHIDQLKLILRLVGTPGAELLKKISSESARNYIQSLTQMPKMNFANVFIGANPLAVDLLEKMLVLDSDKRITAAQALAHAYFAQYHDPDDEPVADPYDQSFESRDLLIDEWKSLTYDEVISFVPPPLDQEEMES
Run Description: p38 Kinase Assay (in vitro; PHAS-I/32P-ATP format or EGFRP/33P-ATP format)
Format: biochemical
Reported Conditions: activated human p38 kinase alpha, 50 μM unlabeled ATP; table does not say which of the two assay formats
Range-based classes on measured IC50: lower bin = under 0.2 µM, middle bin = from 0.2 µM up to 8 µM, upper bin = 8 µM and over

Compound: Cc1cccc(-n2nc(C)cc2-c2ccnc(N(C)Cc3ccccc3)c2)c1 [Example 27]
Qualitative Label: upper bin
--
Compound: Cc1ccc(-n2nc(C)cc2-c2cccc(N)c2)cc1 [Example 14]
Qualitative Label: upper bin
--
Compound: Cc1ccc(-n2nc(C)cc2-c2ccnc(NCc3cccnc3)c2)cc1 [Example 6]
Qualitative Label: middle bin
--
Compound: Cc1cccc(-n2nc(C)cc2-c2ccnc(N(C)CCc3ccccc3)c2)c1 [Example 25]
Qualitative Label: middle bin
--
Compound: Fc1ccc(-n2nccc2-c2ccnc(NCCc3ccccc3)c2)cc1 [Example 30]
Qualitative Label: lower bin
--
Compound: Cc1ccc(-n2nc(C)cc2-c2ccnc(NCc3ccccc3)c2)cc1 [Example 7]
Qualitative Label: lower bin
--
Compound: COc1cc(-c2cc(C)nn2-c2cccc(C)c2)ccn1 [Example 22]
Qualitative Label: lower bin
--
Compound: Cc1cc(-c2ccnc(C(N)=O)c2)n(-c2ccc(F)cc2)n1 [Example 34]
Qualitative Label: upper bin
--
Compound: NC(=O)c1cnn(-c2ccc(F)cc2)c1-c1ccncc1 [Example 16]
Qualitative Label: middle bin
--
Compound: Cc1cccc(-n2nc(C)cc2-c2ccnc(NCCO)c2)c1 [Example 26]
Qualitative Label: lower bin
--
Compound: Cc1cccc(-n2nc(C)cc2-c2ccnc(OCc3ccccc3)c2)c1 [Example 28]
Qualitative Label: middle bin
--
Compound: Cc1ccc(-n2nc(C)cc2-c2ccnc(NCCO)c2)cc1 [Example 5]
Qualitative Label: middle bin
--
Compound: Cc1ccc(-n2nc(C)cc2-c2ccnc(Cl)c2)cc1 [Example 41]
Qualitative Label: upper bin
--
Compound: Cc1cc(-c2ccnc(C#N)c2)n(-c2ccc(F)cc2)n1 [Example 32]
Qualitative Label: middle bin
--
Compound: CCNc1cc(-c2ccncc2)n(-c2ccc(F)cc2)n1 [Example 15]
Qualitative Label: upper bin
--
Compound: O=C(O)c1cnn(-c2ccc(F)cc2)c1-c1ccncc1 [Example 43]
Qualitative Label: upper bin
--
Compound: Cc1cccc(-n2nc(C)cc2-c2ccnc(NCCc3ccccc3)c2)c1 [Example 24]
Qualitative Label: lower bin
--
Compound: Cc1cc(-c2ccnc(NCc3cccnc3)c2)n(-c2cccc(F)c2)n1 [Example 38]
Qualitative Label: middle bin
--
Compound: Cc1cnn(-c2cccc(F)c2)c1-c1ccncc1 [Example 2]
Qualitative Label: upper bin
--
Compound: Cc1ccc(-n2nc(C)cc2-c2ccnc(N(C)C)c2)cc1 [Example 10]
Qualitative Label: upper bin
--
Compound: Cc1cnn(-c2ccc(F)cc2)c1-c1ccncc1 [Example 1]
Qualitative Label: upper bin
--
Compound: Cc1cccc(-n2nc(C)cc2-c2ccnc(C#N)c2)c1 [Example 31]
Qualitative Label: middle bin
--
Compound: Cc1cnn(Cc2ccccc2)c1-c1ccncc1 [Example 4]
Qualitative Label: upper bin
--
Compound: CCNc1cc(-c2cc(C)nn2-c2ccc(C)cc2)ccn1 [Example 8]
Qualitative Label: lower bin
--
Compound: Cc1cc(-c2ccnc(N=[N+]=[N-])c2)n(-c2cccc(F)c2)n1 [Example 37]
Qualitative Label: upper bin
--
Compound: Fc1ccc(-n2nccc2-c2ccnc(NCc3ccccc3)c2)cc1 [Example 29]
Qualitative Label: lower bin
